Below, each entry is listed with its recorded IC50.
study-system: human Edg-2 receptor (LPA1 receptor) (Homo sapiens, UniProt Q92633)
Sequence (Q92633 whole entry): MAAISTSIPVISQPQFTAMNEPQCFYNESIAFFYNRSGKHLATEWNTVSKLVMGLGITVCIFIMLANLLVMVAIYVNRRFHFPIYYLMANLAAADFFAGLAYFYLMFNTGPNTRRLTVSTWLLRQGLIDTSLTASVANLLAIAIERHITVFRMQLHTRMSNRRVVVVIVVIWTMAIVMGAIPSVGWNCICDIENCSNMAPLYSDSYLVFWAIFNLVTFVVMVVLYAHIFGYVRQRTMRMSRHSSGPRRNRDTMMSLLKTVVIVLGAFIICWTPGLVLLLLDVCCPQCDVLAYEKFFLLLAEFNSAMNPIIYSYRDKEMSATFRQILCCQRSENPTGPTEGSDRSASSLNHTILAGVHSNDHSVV
assay-summary: Edg-2 receptor inhibition by FLIPR calcium fluorescence measurement (LPA-mediated calcium liberation)
particulars: CHO cells stably overexpressing human Edg-2 receptor; LPA 18:1 100 nM; fluo-4 fluorescence; triplicate; read-out: Inhibitory concentrations IC50 for inhibition of the Edg-2 receptor

compound: CCOc1ccc(-c2cc(C(=O)NC3(C(=O)O)Cc4ccccc4C3)ccc2OC)cc1C
IC50: 0.1 to 1 µM
//
compound: O=C(NC1(C(=O)O)Cc2ccccc2C1)c1ccc(C(F)(F)F)c(OCCc2cc(F)ccc2F)c1
IC50: < 0.1 µM
//
compound: COc1ccc(C(=O)NC2(C(=O)O)Cc3ccccc3C2)cc1OCC1CCOC1 (stereo not drawn)
IC50: 1 to 30 µM
//
compound: COc1ccc(C(=O)NC2(C(=O)O)Cc3ccccc3C2)cc1-c1cccc(OC(C)C)c1
IC50: 0.1 to 1 µM
//
compound: COc1ccc(C(=O)NC2(C(=O)O)Cc3ccccc3C2)cc1-c1ccc(F)c(C(F)(F)F)c1
IC50: < 0.1 µM
//
compound: COc1ccc(C(=O)NC2(C(=O)O)Cc3ccccc3C2)cc1-c1cccc(OCC(F)(F)F)c1
IC50: 0.1 to 1 µM
//
compound: CCOc1ccc(COc2cc(C(=O)NC3(C(=O)O)Cc4ccccc4C3)ccc2OC)cc1
IC50: 1 to 30 µM
//
compound: COc1ccc(C(=O)NC2(C(=O)O)Cc3ccccc3C2)cc1-c1cccc(C(F)(F)F)c1
IC50: < 0.1 µM
//
compound: COc1ccc(C(=O)NC2(C(=O)O)Cc3ccccc3C2)cc1OCCc1ccc(C)cc1
IC50: 1 to 30 µM
//
compound: COc1ccc(C(=O)NC2(C(=O)O)Cc3ccccc3C2)cc1OS(=O)(=O)c1ccc(C)cc1
IC50: 1 to 30 µM
//
compound: COc1ccc(C(=O)NC2(C(=O)O)Cc3ccc(F)cc3C2)cc1OCCc1cccc(C)c1 (stereo not drawn)
IC50: < 0.1 µM
//
compound: COc1ccc(C(=O)NC2(C(=O)O)Cc3ccccc3C2)cc1OCCc1cccc(O)c1
IC50: 1 to 30 µM
//
compound: COc1ccc(C(=O)NC2(C(=O)O)Cc3ccccc3C2)cc1-c1cccc(CC#N)c1
IC50: < 0.1 µM
//
compound: Cc1cccc(CCOc2cc(C(=O)NC3(C(=O)O)Cc4ccccc4C3)ccc2OCCF)c1
IC50: < 0.1 µM
//
compound: COc1ccc(C(=O)NC2(C(=O)O)Cc3ccccc3C2)cc1NC(=O)Cc1ccccc1
IC50: 0.1 to 1 µM
//
compound: COc1ccc(C(=O)NC2(C(=O)O)Cc3ccccc3C2)cc1S(=O)(=O)CCc1cccc(C)c1
IC50: 1 to 30 µM
//
compound: COc1ccc(C(=O)NC2(C(=O)O)Cc3ccccc3C2)cc1OCCc1cccc(Cl)c1
IC50: < 0.1 µM
//
compound: COc1ccc(C(=O)NC2(C(=O)O)Cc3ccccc3C2)cc1OCCc1cccc(CC(C)(C)O)c1
IC50: < 0.1 µM
//
compound: COc1ccc(C(=O)NC2(C(=O)O)Cc3ccccc3C2)cc1OS(=O)(=O)c1cccc(C)c1
IC50: 1 to 30 µM
//
compound: O=C(NC1(C(=O)O)Cc2ccccc2C1)c1ccc(C(F)(F)F)c(OCCc2cc(Cl)ccc2F)c1
IC50: < 0.1 µM
//
compound: Cc1cccc(CCOc2cc(C(=O)NC3(C(=O)O)Cc4ccccc4C3)ccc2OCCC(F)(F)F)c1
IC50: 0.1 to 1 µM
//
compound: COc1ccc(C(=O)NC2(C(=O)O)Cc3ccccc3C2)cc1-c1cccc(C)c1
IC50: < 0.1 µM
//
compound: COc1ccc2c(c1)CC(NC(=O)c1ccc(OC)c(OCCc3cccc(C)c3)c1)(C(=O)O)C2 (stereo not drawn)
IC50: < 0.1 µM
//
compound: COc1ccc(C(=O)NC2(C(=O)O)Cc3ccccc3C2)cc1OCC(O)c1ccccc1F (stereo not drawn)
IC50: 1 to 30 µM
//
compound: Cc1cccc(CCOc2cc(C(=O)NC3(C(=O)O)Cc4ccccc4C3)ccc2OC(C)C)c1
IC50: < 0.1 µM
//
compound: COc1ccc(C(=O)NC2(C(=O)O)Cc3ccccc3C2)cc1OCCc1cc(C(F)(F)F)ccc1F
IC50: < 0.1 µM
//
compound: COc1ccc(C(=O)NC2(C(=O)O)Cc3ccccc3C2C)cc1OCCc1cccc(C)c1 (stereo not drawn)
IC50: < 0.1 µM

Cited source: patent US8802720B2
